In this section we review reported total protein half-life in vivo values for a set of sequences.
test: total protein half-life in vivo (active degradation + dilution); higher = more stable protein; settings: wild type E. coli NCM3722; growth: P-lim chemostat; doubling time 12 h
Give the quantity in h, number only.

A selection of reference data follows.
| ordered-residues | total protein half-life in vivo [h] |
| --- | --- |
| MTLRKILALTCLLLPMMASAHQFETGQRVPPIGITDRGELVLDKDQFSYKTWNSAQLVGKVRVLQHIAGRTSAKEKNATLIEAIKSAKLPHDRYQTTTIVNTDDAIPGSGMFVRSSLESNKKLYPWSQFIVDSNGVALGAWQLDEESSAVVVLDKDGRVQWAKDGALTPEEVQQVMDLLQKLLK | 8.36 |
| MGLMNAFDSQTEDSSPAIGRNLRSRPLARKKLSEMVEEELEQMIRRREFGEGEQLPSERELMAFFNVGRPSVREALAALKRKGLVQINNGERARVSRPSADTIIGELSGMAKDFLSHPGGIAHFEQLRLFFESSLVRYAAEHATDEQIDLLAKALEINSQSLDNNAAFIRSDVDFHRVLAEIPGNPIFMAIHVALLDWLIAARPTVTDQALHEHNNVSYQQHIAIVDAIRRHDPDEADRALQSHLNSVSATWHAFGQTTNKKK [P0A8W0] | 6.29 |

State its total protein half-life in vivo: `MLCVKNVSLRLPESRLLTNVNFTVDKGDIVTLMGPSGCGKSTLFSWMIGALAEQFSCTGELWLNEQRIDILPTAQRQIGILFQDALLFDQFSVGQNLLLALPATLKGNARRNAVNDALERSGLEGAFHQDPATLSGGQRARVALLRALLAQPKALLLDEPFSRLDVALRDNFRQWVFSEVRALAIPVVQVTHDLQDVPADSSVLDMAQWSENYNKLR`
13.7

Return reported total protein half-life in vivo. Input sequence: `MYPVDLHMHTVASTHAYSTLSDYIAQAKQKGIKLFAITDHGPDMEDAPHHWHFINMRIWPRVVDGVGILRGIEANIKNVDGEIDCSGKMFDSLDLIIAGFHEPVFAPHDKATNTQAMIATIASGNVHIISHPGNPKYEIDVKAVAEAAAKHQVALEINNSSFLHSRKGSEDNCREVAAAVRDAGGWVALGSDSHTAFTMGEFEECLKILDAVDFPPERILNVSPRRLLNFLESRGMAPIAEFADL`
11.9

Please supply the value of reported total protein half-life in vivo for the item MTHDNKLQVEAIKRGTVIDHIPAQIGFKLLSLFKLTETDQRITIGLNLPSGEMGRKDLIKIENTFLSEDQVDQLALYAPQATVNRIDNYEVVGKSRPSLPERIDNVLVCPNSNCISHAEPVSSSFAVRKRANDIALKCKYCEKEFSHNVVLAN [P0A7F3]
12.2

Tell me measured total protein half-life in vivo for `MKIAFIGEAVSGFGGMETVIRDVITTFRQQHIQSEMFFFCRNDKMDKGWLEGIKYSCSFSNIRLGFLRRAKHIHALSKWLQEYQPDIVICIDVISCLFAAKARKKSGIDMPVFSWPHFSLDHKKHAEYITCADYHLAISSGIKQQMINRGVAESTINVIFNPVETKDSVIPAPEEGETATFIYVGRMKFEGQKRVKDLLDGLSQAKGNWKLHVLGDGSDFEKCQAYGRELNIDDRIVWYGWQQYPWELVQQDIEKVSALLLTSSFEGFPMTLLEALSWGIPCISADCVSGPADIIQPDVNGHLYQPGDIAGFVTLLNKYIAGEIHIEHEKIPASIDEFYQSKYYDRLHKVIISAISRRK` please.
11.8

====

assay: total protein half-life in vivo (active degradation + dilution); higher = more stable protein; settings: wild type E. coli NCM3722; growth: C-lim chemostat; doubling time 12 h
observable: total protein half-life in vivo (h)
// return numeric value only (unit: h, not printed)

| ordered-residues | total protein half-life in vivo, h |
| --- | --- |
| MRLLPLVAAATAAFLVVACSSPTPPRGVTVVNNFDAKRYLGTWYEIARFDHRFERGLEKVTATYSLRDDGGLNVINKGYNPDRGMWQQSEGKAYFTGAPTRAALKVSFFGPFYGGYNVIALDREYRHALVCGPDRDYLWILSRTPTISDEVKQEMLAVATREGFDVSKFIWVQQPGS [P0A901] | 10.6 |
| MNIENLKTKAEADISEYITKKIIELKKKTGKEVTSIQFTAREKMTGLESYDVKINLI | 10.6 |
| MIQSQINRNIRLDLADAILLSKAKKDLSFAEIADGTGLAEAFVTAALLGQQALPADAARLVGAKLDLDEDSILLLQMIPLRGCIDDRIPTDPTMYRFYEMLQVYGTTLKALVHEKFGDGIISAINFKLDVKKVADPEGGERAVITLDGKYLPTKPF | 10.6 |
| MSALFLAIPLTIFVLFVLPIWLWLHYSNRSGRSELSQSEQQRLAQLADEAKRMRERIQALESILDAEHPNWRDR [P0AFM9] | 13.4 |

Let me know recorded total protein half-life in vivo for `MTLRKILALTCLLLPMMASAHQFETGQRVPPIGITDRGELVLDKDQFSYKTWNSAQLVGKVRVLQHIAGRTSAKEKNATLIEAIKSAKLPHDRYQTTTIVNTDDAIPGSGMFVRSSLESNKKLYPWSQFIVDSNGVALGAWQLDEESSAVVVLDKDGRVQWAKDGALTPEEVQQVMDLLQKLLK` , thanks.
7.33

====

test: total protein half-life in vivo (active degradation + dilution); higher = more stable protein; settings: wild type E. coli NCM3722; growth: N-lim chemostat; doubling time 12 h
Cut-off 6 h on total protein half-life in vivo, inclusive. At or above means fulfilled; below means not fulfilled.

Example entries and their recorded answers appear below.
| ordered-residues | class-label |
| --- | --- |
| MPLLDSFTVDHTRMEAPAVRVAKTMNTPHGDAITVFDLRFCVPNKEVMPERGIHTLEHLFAGFMRNHLNGNGVEIIDISPMGCRTGFYMSLIGTPDEQRVADAWKAAMEDVLKVQDQNQIPELNVYQCGTYQMHSLQEAQDIARSILERDVRINSNEELALPKEKLQELHI | not fulfilled |
| MTTLAIDIGGTKLAAALIGADGQIRDRRELPTPASQTPEALRDALSALVSPLQAHAQRVAIASTGIIRDGSLLALNPHNLGGLLHFPLVKTLEQLTNLPTIAINDAQAAAWAEFQALDGDITDMVFITVSTGVGGGVVSGCKLLTGPGGLAGHIGHTLADPHGPVCGCGRTGCVEAIASGRGIAAAAQGELAGADAKTIFTRAGQGDEQAQQLIHRSARTLARLIADIKATTDCQCVVVGGSVGLAEGYLALVETYLAQEPAAFHVDLLAAHYRHDAGLLGAALLAQGEKL | not fulfilled |
| MPRANEIKKGMVLNYNGKLLLVKDIDIQSPTARGAATLYKMRFSDVRTGLKVEERFKGDDIVDTVTLTRRYVDFSYVDGNEYVFMDKEDYTPYTFTKDQIEEELLFMPEGGMPDMQVLTWDGQLLALELPQTVDLEIVETAPGIKGASASARNKPATLSTGLVIQVPEYLSPGEKIRIHIEERRYMGRAD [P0A6N8] | fulfilled |

In plain terms: is recorded total protein half-life in vivo at least 6 h for `MSWQEKINAALDARRAADALRRRYPVAQGAGRWLVADDRQYLNFSSNDYLGLSHHPQIIRAWQQGAEQFGIGSGGSGHVSGYSVVHQALEEELAEWLGYSRALLFISGFAANQAVIAAMMAKEDRIAADRLSHASLLEAASLSPSQLRRFAHNDVTHLARLLASPCPGQQMVVTEGVFSMDGDSAPLAEIQQVTQQHNGWLMVDDAHGTGVIGEQGRGSCWLQKVKPELLVVTFGKGFGVSGAAVLCSSTVADYLLQFARHLIYSTSMPPAQAQALRASLAVIRSDEGDARREKLAALITRFRAGVQDLPFTLADSCSAIQPLIVGDNSRALQLAEKLRQQGCWVTAIRPPTVPAGTARLRLTLTAAHEMQDIDRLLEVLHGNG` ?
not fulfilled

Check the entry MTDLIQRPRRLRKSPALRAMFEETTLSLNDLVLPIFVEEEIDDYKAVEAMPGVMRIPEKHLAREIERIANAGIRSVMTFGISHHTDETGSDAWREDGLVARMSRICKQTVPEMIVMSDTCFCEYTSHGHCGVLCEHGVDNDATLENLGKQAVVAAAAGADFIAPSAAMDGQVQAIRQALDAAGFKDTAIMSYSTKFASSFYGPFREAAGSALKGDRKSYQMNPMNRREAIRESLLDEAQGADCLMVKPAGAYLDIVRELRERTELPIGAYQVSGEYAMIKFAALAGAIDEEKVVLESLGSIKRAGADLIFSYFALDLAEKKILR [P0ACB2] : does total protein half-life in vivo equal or exceed 6 h?
fulfilled

====

Parameter total protein half-life in vivo: see the listing below.
experiment: total protein half-life in vivo (active degradation + dilution); higher = more stable protein; settings: wild type E. coli NCM3722; growth: P-lim chemostat; doubling time 6 h
# unit: h | format: bare number

| ordered-residues | total protein half-life in vivo [h] |
| --- | --- |
| MQENYKILVVDDDMRLRALLERYLTEQGFQVRSVANAEQMDRLLTRESFHLMVLDLMLPGEDGLSICRRLRSQSNPMPIIMVTAKGEEVDRIVGLEIGADDYIPKPFNPRELLARIRAVLRRQANELPGAPSQEEAVIAFGKFKLNLGTREMFREDEPMPLTSGEFAVLKALVSHPREPLSRDKLMNLARGREYSAMERSIDVQISRLRRMVEEDPAHPRYIQTVWGLGYVFVPDGSKA [P0AA16] | 5.66 |
| MSEQLVTPENVTTKDGKINLLDLNRQQMREFFKDLGEKPFRADQVMKWMYHYCCDNFDEMTDINKVLRGKLKEVAEIRAPEVVEEQRSSDGTIKWAIAVGDQRVETVYIPEDDRATLCVSSQVGCALECKFCSTAQQGFNRNLRVSEIIGQVWRAAKIVGAAKVTGQRPITNVVMMGMGEPLLNLNNVVPAMEIMLDDFGFGLSKRRVTLSTSGVVPALDKLGDMIDVALAISLHAPNDEIRDEIVPINKKYNIETFLAAVRRYLEKSNANQGRVTIEYVMLDHVNDGTEHAHQLAELLKDTPCKINLIPWNPFPGAPYGRSSNSRIDRFSKVLMSYGFTTIVRKTRGDDIDAACGQLAGDVIDRTKRTLRKRMQGEAIDIKAV | 1.78 |
| MSAKHPVIAVTGSSGAGTTTTSLAFRKIFAQLNLHAAEVEGDSFHRYTRPEMDMAIRKARDAGRHISYFGPEANDFGLLEQTFIEYGQSGKGKSRKYLHTYDEAVPWNQVPGTFTPWQPLPEPTDVLFYEGLHGGVVTPQHNVAQHVDLLVGVVPIVNLEWIQKLIRDTSERGHSREAVMDSVVRSMEDYINYITPQFSRTHLNFQRVPTVDTSNPFAAKGIPSLDESFVVIHFRNLEGIDFPWLLAMLQGSFISHINTLVVPGGKMGLAMELIMLPLVQRLMEGKKIE [P0AEX5] | 6.16 |

Lab note: next sequence to report on.
Supply measured total protein half-life in vivo of MKSLQALFGGTFDPVHYGHLKPVETLANLIGLTRVTIIPNNVPPHRPQPEANSVQRKHMLELAIADKPLFTLDERELKRNAPSYTAQTLKEWRQEQGPDVPLAFIIGQDSLLTFPTWYEYETILDNAHLIVCRRPGYPLEMAQPQYQQWLEDHLTHNPEDLHLQPAGKIYLAETPWFNISATIIRERLQNGESCEDLLPEPVLTYINQQGLYR [P0A752] in your reply.
5.47
